Where do these numbers come from? They come from ChEMBL document CHEMBL5380823.

test: Oral bioavailability in Wistar rat at 1 mg/kg; format: ADME, organism-based; settings: in vivo
assay-metric: bioavailability (%)

{"molecule-smiles": "Cc1c[nH]c2nccc(Oc3ccc(Nc4cc(Cl)nc(N)n4)cc3F)c12", "assay-metric": "bioavailability", "number": 48}

----------
assay: Half life in BLM-induced Sprague-Dawley rat at 1 mg/kg, iv measured upto 24 hrs; format: ADME, organism-based; settings: in vivo

{"molecule": "COc1cccc(C(CO)NC(=O)c2cccc(-c3ccc4[nH]ncc4c3)c2)c1 (stereo unspecified)", "unit": "h", "half-life": 2.9}

----------
molecular target: Rho-associated protein kinase 1 (Homo sapiens, UniProt Q13464)
Sequence (Q13464 whole entry): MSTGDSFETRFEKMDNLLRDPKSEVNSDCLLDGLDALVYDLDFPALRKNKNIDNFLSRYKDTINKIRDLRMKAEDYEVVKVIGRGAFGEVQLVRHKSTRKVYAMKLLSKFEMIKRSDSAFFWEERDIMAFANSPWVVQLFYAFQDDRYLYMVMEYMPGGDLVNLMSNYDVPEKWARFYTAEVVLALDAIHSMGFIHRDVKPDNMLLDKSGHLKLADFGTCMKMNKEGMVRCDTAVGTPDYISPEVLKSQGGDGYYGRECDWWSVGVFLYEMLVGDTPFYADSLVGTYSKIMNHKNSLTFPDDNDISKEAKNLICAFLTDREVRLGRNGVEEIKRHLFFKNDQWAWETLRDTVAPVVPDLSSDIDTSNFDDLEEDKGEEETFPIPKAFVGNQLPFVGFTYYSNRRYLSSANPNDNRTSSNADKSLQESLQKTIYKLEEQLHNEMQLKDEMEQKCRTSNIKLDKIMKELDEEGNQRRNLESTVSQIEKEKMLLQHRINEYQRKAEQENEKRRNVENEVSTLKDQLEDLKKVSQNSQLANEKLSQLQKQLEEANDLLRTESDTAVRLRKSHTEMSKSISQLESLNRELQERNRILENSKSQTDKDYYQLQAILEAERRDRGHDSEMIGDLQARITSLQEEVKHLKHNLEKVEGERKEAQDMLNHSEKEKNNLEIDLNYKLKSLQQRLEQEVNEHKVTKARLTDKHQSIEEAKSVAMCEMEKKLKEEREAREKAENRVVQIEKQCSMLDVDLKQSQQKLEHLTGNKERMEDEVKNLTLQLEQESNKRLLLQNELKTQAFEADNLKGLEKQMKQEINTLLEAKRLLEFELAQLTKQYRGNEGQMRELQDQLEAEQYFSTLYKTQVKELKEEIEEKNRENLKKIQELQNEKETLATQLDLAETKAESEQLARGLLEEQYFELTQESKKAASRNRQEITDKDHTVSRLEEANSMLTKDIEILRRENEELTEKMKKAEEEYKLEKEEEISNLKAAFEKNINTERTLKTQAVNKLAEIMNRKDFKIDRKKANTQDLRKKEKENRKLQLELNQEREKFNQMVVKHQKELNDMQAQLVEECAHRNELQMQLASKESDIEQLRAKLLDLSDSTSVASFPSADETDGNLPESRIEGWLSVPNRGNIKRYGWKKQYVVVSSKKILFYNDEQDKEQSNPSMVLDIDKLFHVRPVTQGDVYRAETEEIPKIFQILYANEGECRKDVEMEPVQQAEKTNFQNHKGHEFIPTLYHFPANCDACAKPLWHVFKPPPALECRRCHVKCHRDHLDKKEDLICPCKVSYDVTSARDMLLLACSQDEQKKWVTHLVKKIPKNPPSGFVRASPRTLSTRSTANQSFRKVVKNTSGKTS
pKi: −log10 of the molar value.
assay-metric: pKi

{"molecule-smiles": "c1cc(Oc2ccc3c(c2)CNCC3)c2c(-c3ccncc3)c[nH]c2c1", "target-of-assay": "Rho-associated protein kinase 1 (Homo sapiens, UniProt Q13464)", "result": "> 8.52"}

----------
test: Oral bioavailability in BLM-induced Sprague-Dawley rat at 2 mg/kg measured upto 24 hrs; assay type: ADME, organism-based; settings: in vivo
assay-metric: bioavailability (%)

{"compound": "COc1cccc(C(CO)NC(=O)c2cccc(-c3ccc4[nH]ncc4c3)c2)c1 (stereo unspecified)", "assay-metric": "bioavailability", "number": 45}
